# Tested on: SNB-19 CNS
# experimental_details: NCI-60 one-dose screen, 48 h
# conditions_used: 10 µM unless noted
This is part of a sample that, as a whole, favours compounds with a hit. Of some 83,000 tested, about 20% had one in any assay. The source made the active and inactive calls. Rule for the calls: active = growth percent below 10; inactive = the rest.
Use one of these outcomes when replying: label 1 (active), label 0 (inactive)

Check out these entries, answers already filled in.
>>> class_label("CCNCCNc1cc(C2CCCC2)c(C#N)c2nc3ccccc3n12")
"label 0"
>>> class_label("Cc1ccc(S(=O)(=O)NN/C(N)=N\\S(=O)(=O)c2cc(C)c(Cl)cc2SCc2ccccc2)cc1")
"label 0"
>>> class_label("COc1cc(-c2ccc(-c3ccc(C(=N)N)nc3)s2)cc(OC)c1OC")
"label 0"
>>> class_label("CCCCN1CCN(c2ccc3nc(-c4ccc5nc(-c6ccc(OCC)c(OCC)c6)[nH]c5c4)[nH]c3c2)CC1")
"label 1"
>>> class_label("CS(=O)(=O)c1ccc(-c2nc3cc(Cl)ccc3n2CC(=O)N/N=C/c2ccc(Cl)cc2)cc1")
"label 0"

Dear all, I need the recorded test outcome for OC(COc1cccc2ccccc12)CN1CCN(c2ccccc2)CC1 (centres undefined) , thank you.
label 0

Dear all, I need the recorded test outcome for `Cc1cnc(Nc2ccc(OCCN3CCCC3)cc2)nc1NCc1ccco1` , thank you.
label 0

Dear all, I need the recorded test outcome for `O=C(/C=C/c1ccccc1)c1ccc2ccccc2c1` , thank you.
label 0

Dear all, I need the recorded test outcome for `NC(=S)c1csc(CCNC(=O)c2ccccc2)n1` , thank you.
label 0

Dear all, I need the recorded test outcome for `CC1(C)N=C(N)N=C(N)N1c1ccc(Cl)c(Cl)c1` , thank you.
label 0

---

# Tested on: HCT-15 colon
# experimental_details: NCI-60 one-dose screen, 48 h
# conditions_used: 10 µM unless noted
This is part of a sample that, as a whole, favours compounds with a hit. Of some 83,000 tested, about 20% had one in any assay. Activity calls are given as the source filed them. How the source made its calls: active means growth percent below 10; inactive means the rest.
Use one of these outcomes when replying: 1.0 (active), 0.0 (inactive)

Check out these entries, answers already filled in.
>>> class_label("O=C(NCc1cn(Cc2cccc(Oc3ccccc3)c2)nn1)c1cccnc1NCc1ccc(Cl)cc1")
0.0
>>> class_label("COc1ccc(OC)c(Nc2nc3nonc3nc2Nc2cc(OC)ccc2OC)c1")
0.0
>>> class_label("O=c1oc2ccc(Cl)cc2cc1-c1cs/c(=N/N=C\\c2ccc(Cl)cc2)n1/N=C/c1ccc(Cl)cc1")
0.0

Now let's try a different one.
Dear all, I need the recorded test outcome for `CCOC(=O)c1ccc(-c2ccc3cc(OC)ccc3c2)nc1C` , thank you.
0.0

---

# System: HOP-92 NSCLC
# experimental_details: NCI-60 one-dose screen, 48 h
# conditions_used: 10 µM unless noted
About 83,000 compounds went through this panel and 20% of them were active in at least one assay; those are over-represented in the sample as a whole. The source made the active and inactive calls. The calls were made as follows: active = growth percent below 10; inactive = the rest.
Use one of these outcomes when replying: t = active, f = inactive

Check out these entries, answers already filled in.
>>> class_label("CCN(CC)CC(=O)Nc1cccc(C(=O)OC(C)C)c1")
"f"
>>> class_label("O=C(NCOC(O)C(Cl)(Cl)Cl)NCOC(O)C(Cl)(Cl)Cl (stereo not given)")
"f"
>>> class_label("CC(C)n1nc(C#Cc2cccc3cc(-c4cccc(C(F)(F)F)c4)ncc23)c2c(N)ncnc21")
"f"
>>> class_label("CC(C)(C)Nc1c(-c2c3ccccc3cc3ccccc23)nc2ccccn12")
"f"
>>> class_label("Nc1c(-c2nc3ccccc3c(=O)[nH]2)nnn1-c1ccc(Cl)cc1")
"f"
>>> class_label("C=CC(=O)N[C@@H](Cc1ccc(-c2cc(Cl)cc(Cl)c2)cc1)[C@@H](O)[C@H](O)C(=O)O")
"f"
>>> class_label("CCNCCNc1cc(-c2ccc(C(F)(F)F)cc2)c(C#N)c2nc3cc(Cl)c(Cl)cc3n12")
"t"
>>> class_label("C/C(=N\\NC(=O)Cn1c(-c2ccc(S(C)(=O)=O)cc2)nc2cc(Cl)ccc21)c1ccc(Cl)cc1")
"f"
>>> class_label("CCc1nc2ccccc2[nH]1")
"f"

Now let's try a different one.
Dear all, I need the recorded test outcome for `CNCCNc1nc2ccccc2c2c(=O)c3cc(F)ccc3oc12` , thank you.
f
